# Target entity: CCKB receptor (Mus musculus, UniProt P56481)
# Construct: The cortex was dissected, weighed and homogenised in 40 ml ice-cold buffer; tissue Charles River (animals); host or cells: cerebral cortex of male CD1 mice, membranes
# Sequence (P56481 1-453): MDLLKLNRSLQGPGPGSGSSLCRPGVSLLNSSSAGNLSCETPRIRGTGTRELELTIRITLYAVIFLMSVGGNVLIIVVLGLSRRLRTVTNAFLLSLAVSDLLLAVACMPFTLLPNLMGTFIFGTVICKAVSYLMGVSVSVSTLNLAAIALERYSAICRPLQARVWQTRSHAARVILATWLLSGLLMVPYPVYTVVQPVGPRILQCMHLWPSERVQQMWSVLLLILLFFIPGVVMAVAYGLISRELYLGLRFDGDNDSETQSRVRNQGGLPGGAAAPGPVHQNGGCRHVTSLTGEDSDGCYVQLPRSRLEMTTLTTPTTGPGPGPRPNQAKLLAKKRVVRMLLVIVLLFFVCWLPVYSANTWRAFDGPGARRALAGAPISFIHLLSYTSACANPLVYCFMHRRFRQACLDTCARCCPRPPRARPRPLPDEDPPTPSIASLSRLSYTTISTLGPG
# Protocol description: radioligand binding assay at the CCKB receptor in mouse cortical membranes ([125I]-CCK8S)
# Measurement conditions: [125I]-CCK8S 200 pM, 150 min at 21±3° C., pH 7.2, read-out: pKi (Mouse cortex) (converted)
Recorded metric: Ki (µM)
Reply with just the number (in µM).

// query Param item = CCC1CCN(C(=O)Nc2ccc(Cl)c(Cl)c2)CC(=O)N(Cc2ccccc2)c2ccccc21 (stereo not shown) [Example 52] ; retrieve measured Ki.
// result 10

// query // query: C=C1CCN(C(=O)Nc2cccc(C)c2)CC(=O)N(Cc2ccccc2)c2ccccc21 [Example 9]
// result 3.98

// query Also CC(=O)N1[C@H](CC(C)(C)C)C(=O)N(Cc2ccccc2)c2ccccc2C(=O)C[C@H]1C(=O)O [Example 19] , if possible.
// result 7.94

// query Similarly, CC(C)(C)OC(=O)CN1C(=O)CN(C(=O)Oc2ccccc2)CCC(=O)c2ccccc21 [Example 43] ?
// result 15.8

// query // next record CC(=O)N1[C@H](CC23CC4CC(CC(C4)C2)C3)C(=O)N(Cc2ccc(Cl)cc2)c2ccccc2C(=O)C[C@H]1C(=O)O [Example 16]
// result 1.58

// query Let us now turn to CC(=O)N1[C@H](CC23CC4CC(CC(C4)C2)C3)C(=O)N(Cc2ccc(C)cc2)c2ccccc2C(=O)C[C@H]1C(=O)NCC(=O)O [Example 72]
// result 0.631

// query Also need CC(=O)N1[C@H](CC23CC4CC(CC(C4)C2)C3)C(=O)N(Cc2ccccc2)c2ccccc2C(=O)C[C@H]1C(=O)NCc1nn[nH]n1 [Example 67] , thanks.
// result 0.158

---

# Target entity: CCKB receptor (Mus musculus)
# Construct: The cortex was dissected, weighed and homogenised in 40 ml ice-cold buffer; tissue Charles River (animals); host or cells: cerebral cortex of male CD1 mice, membranes
# Protocol description: radioligand binding assay at the CCKB receptor in mouse cortical membranes ([125I]-CCK8S)
# Measurement conditions: [125I]-CCK8S 200 pM, 150 min at 21±3° C., pH 7.2, read-out: pKi (Mouse cortex) (converted)
Response field label takes yes (1) when Ki is strictly below 6 µM and no (0) in all other cases.

// query Regarding CC(C)(C)OC(=O)CN1C(=O)CN(C(=O)OCc2ccccc2)CCC(=O)c2ccccc21 , kindly confirm whether its Ki is beneath 6 µM.
// result no (0)

// query Same question, CC(=O)N1[C@H](CC23CC4CC(CC(C4)C2)C3)C(=O)N(Cc2ccccc2Cl)c2ccccc2C(=O)C[C@H]1C(=O)NCC(=O)O this time
// result yes (1)

// query Also check O=C1C[C@@H](C(=O)O)N(C(=O)OCc2ccccc2)[C@H](CC23CC4CC(CC(C4)C2)C3)C(=O)N(Cc2ccccc2)c2ccccc21
// result yes (1)

// query Again, but for CCOC(=O)CN1C(=O)CN(C(=O)Nc2cccc(C)c2)CCC(=O)c2ccccc21
// result no (0)

// query Next record, please: CC(=O)N1[C@H](C(=O)O)CC(=O)c2ccccc2N(Cc2ccccc2)C(=O)[C@@H]1CC12CC3CC(CC(C3)C1)C2
// result no (0)

// query And for CC1CCN(C(=O)Nc2cc(C(=O)O)cc(C(=O)O)c2)CC(=O)N(Cc2ccccc2)c2ccccc21 (stereo not shown) ?
// result no (0)

// query Same again, this time with CC(=O)N1[C@H](CC23CC4CC(CC(C4)C2)C3)C(=O)N(Cc2ccccc2F)c2ccccc2C(=O)C[C@H]1C(=O)NCC(=O)O
// result yes (1)
